The values you see were collected from the supplement of paper PMC11780869.

# Test system: Bacillus subtilis
# test-details: cleaved RNA product abundance (RNA/gDNA barcode ratio) relative to median wild-type variant (ratio to wild type); higher = more accumulation of the downstream cleavage product
# condition-info: experiment (reporter, strain, medium): exp 4a: truncated aprE reporter, strain BJT201 with 2% xylose (RNase J1 expressed); cleavage site: cggR-gapA (positions -7 to +36 mutated)
value-kind: cleaved RNA product abundance
Enter the number alone.

Record `ACAGACGAAGGAGCCGCAAAGAAGTTATTAAGGGATGAATAATTCCTCAATATAAAAATCTCTCACTTATTTAAA` ; system Bacillus subtilis; cleaved RNA product abundance = 0.86

Item: `ACAGACGAAGGAGCCGCAAAGAAGTTACTAAGGGATGCATAATCCCTCAATATAAATATCTCTCACTTATTTAAA` | System: Bacillus subtilis | cleaved RNA product abundance: 0.235

Item `ACAGACGAAGGAGCCGCAAAGATGTTATTAACGGATGAATAATCCCTCAATATAAATATCTCTCACTTATTTAAA` ; assay system Bacillus subtilis; cleaved RNA product abundance reported as 0.151

# cleaved RNA product abundance measured on Bacillus subtilis for item `ACAGACGAAGGAGCCGCAAAGAAGTTGTTAAGGGATGAATAATCCCTTAATATAAATATCTCTCACTTATTTAAA` = 0.892

Item `ACAGACGAAGGAGCCGCAAAGAAGTTATTAAGCGATGAATAATCCCTGAATATAAATATCTCTCACTTATTTAAA` was tested on Bacillus subtilis; the reported cleaved RNA product abundance is 0.072

For `ACAGACGAAGGAGCCGCGAAGAAGTTATTAAGGGATGAATAATACCTCAATATAAATATCTCTCACTTATTTAAA` on Bacillus subtilis, measured cleaved RNA product abundance was 0.117

Value sought: cleaved RNA product abundance, system Bacillus subtilis, item `ACAGACGAAGGAGCCGCAAAAAAGTGATTAAGGGATGAATAATCCCTCAATATAAATATCTCTCACTTATTTAAA` . Result: 0.583

Reported Bacillus subtilis cleaved RNA product abundance for item `ACAGACGAAGGAGCCGCAAAGAAGTGAATAAGGGATGAATAATCCCTCAATATAAATATCTCTCACTTATTTAAA` was 0.296

Result for `ACAGACGAAGGAGCCGCAAACAAGTTATGAAGGGATGAATAATCCCTCAATATAAATATCTCTCACTTATTTAAA` , tested on Bacillus subtilis, cleaved RNA product abundance: 0.239

With Bacillus subtilis as the test system, `ACAGACGAAGGAGCCGCAAAGGAGTTATTAAGGGATGAATAATCCCTGAATATAAATATCTCTCACTTATTTAAA` showed cleaved RNA product abundance of 0.361

For `ACAGACGAAGGAGCCGCAAATAAGTAATTAAGGGATGAATAATCCCTCAATATAAATATCTCTCACTTATTTAAA` on Bacillus subtilis, measured cleaved RNA product abundance was 0.339

Bacillus subtilis assay, sequence `ACAGACGAAGGAGCCGCAAAGAAGTTATTAACGCATGAATAATCCCTCAATATAAATATCTCTCACTTATTTAAA` , recorded cleaved RNA product abundance = 0.0743

// assay Bacillus subtilis, entry `ACAGACGAAGGAGCCGCAAAGAAGTTATTAAGGGGATGAATAATCCCTCAATATAAATATCTCTCACTTATTTAA` , cleaved RNA product abundance value = 0.237
